# GI50 per record follows
target: BaF3 cell lines stably transfected with kinase EGFR Del/T790M/C797S (Homo sapiens, UniProt P00533, T790M/C797S, cells depend on it, form not given); experiment: Growth inhibition of BaF3 cell line stably transfected with kinase EGFR Del/T790M/C797S (MTS); type: cell-based; conditions: 48 h, read-out: growth inhibitory activity IC50, Del/T790M/C797S
Sequence (P00533 with tags, fused parts or gaps DEL746-750/T790M/C797S, form open): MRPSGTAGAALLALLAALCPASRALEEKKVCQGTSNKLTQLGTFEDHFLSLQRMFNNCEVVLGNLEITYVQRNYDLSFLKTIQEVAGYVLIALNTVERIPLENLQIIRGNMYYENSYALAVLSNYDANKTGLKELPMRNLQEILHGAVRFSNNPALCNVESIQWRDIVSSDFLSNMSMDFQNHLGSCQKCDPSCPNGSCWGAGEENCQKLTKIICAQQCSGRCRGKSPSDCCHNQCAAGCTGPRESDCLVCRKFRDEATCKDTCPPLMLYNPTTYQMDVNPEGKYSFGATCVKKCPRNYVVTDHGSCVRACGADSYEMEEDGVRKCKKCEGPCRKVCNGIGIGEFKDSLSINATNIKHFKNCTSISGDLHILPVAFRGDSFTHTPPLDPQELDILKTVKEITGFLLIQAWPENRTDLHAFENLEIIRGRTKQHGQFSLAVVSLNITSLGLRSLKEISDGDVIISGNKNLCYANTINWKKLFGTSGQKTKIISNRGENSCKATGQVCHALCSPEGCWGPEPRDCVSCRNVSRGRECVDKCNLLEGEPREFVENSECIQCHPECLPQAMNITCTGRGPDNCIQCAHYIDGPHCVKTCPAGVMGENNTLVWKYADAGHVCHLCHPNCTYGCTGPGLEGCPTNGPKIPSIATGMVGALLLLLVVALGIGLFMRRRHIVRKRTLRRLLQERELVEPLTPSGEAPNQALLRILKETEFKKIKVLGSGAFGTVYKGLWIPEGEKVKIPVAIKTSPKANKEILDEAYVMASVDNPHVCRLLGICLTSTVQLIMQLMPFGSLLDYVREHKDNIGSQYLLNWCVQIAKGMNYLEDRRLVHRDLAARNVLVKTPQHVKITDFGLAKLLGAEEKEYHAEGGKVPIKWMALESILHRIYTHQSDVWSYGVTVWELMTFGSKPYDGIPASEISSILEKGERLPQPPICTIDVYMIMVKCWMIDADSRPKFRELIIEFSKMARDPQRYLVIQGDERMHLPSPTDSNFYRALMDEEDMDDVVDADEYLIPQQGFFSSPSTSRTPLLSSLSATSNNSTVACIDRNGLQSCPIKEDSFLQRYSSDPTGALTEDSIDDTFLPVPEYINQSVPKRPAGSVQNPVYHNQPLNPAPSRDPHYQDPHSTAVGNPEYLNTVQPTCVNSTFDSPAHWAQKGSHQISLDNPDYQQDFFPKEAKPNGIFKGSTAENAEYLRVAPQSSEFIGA

Consider the worked cases shown below.
[
  {
    "Mol": "C=Cc1cnc(Nc2cc(CC)c(N3CCC(N4CCNCC4)CC3)cc2OC)nc1Nc1ccc2nccnc2c1N(C)S(C)(=O)=O",
    "GI50": "≤ 50 nM"
  },
  {
    "Mol": "C=Cc1cnc(Nc2cc(CC)c(N3CCN(C)CC3)cc2OC)nc1Nc1ccc2nccnc2c1S(=O)(=O)NC",
    "GI50": "50 to 500 nM"
  },
  {
    "Mol": "C=Cc1cnc(Nc2cc3c(cc2C)CCN(C)C3)nc1Nc1ccc2nccnc2c1N(C)S(C)(=O)=O",
    "GI50": "50 to 500 nM"
  },
  {
    "Mol": "C=Cc1cnc(Nc2cc(CC)n(C)n2)nc1Nc1ccc2nccnc2c1N(C)S(C)(=O)=O",
    "GI50": "50 to 500 nM"
  },
  {
    "Mol": "C=Cc1cnc(Nc2cc(CC)c(N3CCC(N(C)C)CC3)cc2OC)nc1Nc1ccc2nccnc2c1P(C)(C)=O",
    "GI50": "≤ 50 nM"
  }
]

Q. So what's the measured GI50 for this one? `C=Cc1cnc(Nc2cc(CC)c(N3CCC(N4CCN(C)CC4)CC3)cc2OC)nc1Nc1ccc2nccnc2c1S(=O)(=O)C(C)C`
A. 50 to 500 nM

Q. Recorded GI50 for `C=Cc1cnc(Nc2cc(CC)c(N3CCC(N4CCN(C)CC4)CC3)nc2OC)nc1Nc1ccc2nccnc2c1S(C)(=O)=O` , please?
A. 500 to 2500 nM
